// data source = ChEMBL document CHEMBL1139730

Values of pKi reported for Coagulation factor X (Homo sapiens, UniProt P00742) appear below.
When answering, recall that pKi equals minus log10 of the concentration in mol/L, and write that number alone.

>  <smiles.data>
CCc1ccc(-n2nc(C(F)(F)F)c3c2C(=O)N(c2ccc(-c4ccccc4CN(C)C)cc2)CC3)cc1

>  <pKi>
8.59

$$$$

Value wanted: pKi (Coagulation factor X (Homo sapiens, UniProt P00742)) of entry NS(=O)(=O)c1ccccc1-n1nc(C(F)(F)F)c2c1C(=O)N(c1ccc(-c3ccccc3CN3CC[C@@H](O)C3)cc1)CC2 8.92

Query the reported pKi for Coagulation factor X (Homo sapiens, UniProt P00742); item: COc1ccc(-n2nc(C(F)(F)F)c3c2C(=O)N(c2ccc(-c4ccccc4S(C)(=O)=O)cc2)CC3)c(C(N)=O)c1 9.74

Identify the measured pKi of CN(C)Cc1ccccc1-c1ccc(N2CCc3c(C(F)(F)F)nn(-c4cccc5onc(N)c45)c3C2=O)cc1 for Coagulation factor X (Homo sapiens, UniProt P00742). 10.40

---

test: Half life in po dosed dog; assay type: ADME, organism-based, Canis lupus familiaris; conditions: in vivo
measured.attribute: half-life (h)
Provide the reading as a plain figure in h.

// half-life lookup, key: NC(=O)c1cccc(-n2nc(C(F)(F)F)c3c2C(=O)N(c2ccc(-c4ccccc4CN4CC[C@@H](O)C4)cc2)CC3)c1 7.2

Quick one: half-life of CN(C)Cc1ccccc1-c1ccc(N2CCc3c(C(F)(F)F)nn(-c4ccccc4S(N)(=O)=O)c3C2=O)cc1 ? 11.6

Reported half-life, molecule NS(=O)(=O)c1ccccc1-n1nc(C(F)(F)F)c2c1C(=O)N(c1ccc(-c3ccccc3CN3CC[C@@H](O)C3)cc1)CC2 : ____ 9.4

Any idea what half-life was measured for CN(C)Cc1ccccc1-c1ccc(N2CCc3c(C(F)(F)F)nn(-c4cccc(C(N)=O)c4)c3C2=O)cc1 ? 13

---

Reported Vd values follow for various compounds
assay: Volume of distribution in dog; type: ADME, organism-based, Canis lupus familiaris; conditions: in vivo, read-out: Vdss
Only the number, expressed in L/kg, is required.

The examples below pair each entry with its known result.
>  <smiles.data>
NC(=O)c1cccc(-n2nc(C(F)(F)F)c3c2C(=O)N(c2ccc(-c4ccccc4CN4CC[C@@H](O)C4)cc2)CC3)c1

>  <measured.attribute>
Vd

>  <experimental.value>
2.6

$$$$
>  <smiles.data>
CN(C)Cc1ccccc1-c1ccc(N2CCc3c(C(F)(F)F)nn(-c4cccc(C(N)=O)c4)c3C2=O)cc1

>  <measured.attribute>
Vd

>  <experimental.value>
4

$$$$
>  <smiles.data>
CN(C)Cc1ccccc1-c1ccc(N2CCc3c(C(F)(F)F)nn(-c4ccccc4S(N)(=O)=O)c3C2=O)cc1

>  <measured.attribute>
Vd

>  <experimental.value>
8.1

$$$$

Shifting focus to the compound that follows.
Which Vd value belongs to NS(=O)(=O)c1ccccc1-n1nc(C(F)(F)F)c2c1C(=O)N(c1ccc(-c3ccccc3CN3CC[C@@H](O)C3)cc1)CC2 ? 3.5

---

The following compounds each carry a recorded Ki for Coagulation factor X (Homo sapiens, UniProt P00742).
Provide only the numeric value, understood in pM.

Some entries whose results are on file:
>  <smiles.data>
COc1ccc(-n2nc(C(F)(F)F)c3c2C(=O)N(c2ccc(-c4ccccc4S(C)(=O)=O)cc2)CC3)c(S(N)(=O)=O)c1

>  <study.target>
Coagulation factor X (Homo sapiens, UniProt P00742)
Sequence (P00742 41-179 limits assumed): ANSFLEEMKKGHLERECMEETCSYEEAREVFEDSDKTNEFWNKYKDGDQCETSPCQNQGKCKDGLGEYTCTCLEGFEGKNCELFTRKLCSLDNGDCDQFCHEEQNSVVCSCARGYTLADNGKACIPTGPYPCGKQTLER
Sequence (P00742 235-488 limits assumed): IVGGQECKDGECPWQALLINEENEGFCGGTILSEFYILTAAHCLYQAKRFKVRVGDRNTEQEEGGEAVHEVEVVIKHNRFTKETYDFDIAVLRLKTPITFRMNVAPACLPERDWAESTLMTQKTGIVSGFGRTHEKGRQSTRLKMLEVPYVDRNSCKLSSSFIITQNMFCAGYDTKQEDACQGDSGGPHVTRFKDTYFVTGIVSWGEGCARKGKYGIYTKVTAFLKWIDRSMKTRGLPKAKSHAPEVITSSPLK

>  <measured.attribute>
Ki

>  <unit.spec>
pM

>  <experimental.value>
120

$$$$
>  <smiles.data>
CS(=O)(=O)c1ccccc1-c1ccc(N2CCc3c(C(F)(F)F)nn(-c4ccccc4C(N)=O)c3C2=O)cc1

>  <study.target>
Coagulation factor X (Homo sapiens, UniProt P00742)

>  <measured.attribute>
Ki

>  <unit.spec>
pM

>  <experimental.value>
2000

$$$$
>  <smiles.data>
CN(C)Cc1ccccc1-c1ccc(N2CCc3c(C(F)(F)F)nn(-c4cccc(N)c4)c3C2=O)cc1

>  <study.target>
Coagulation factor X (Homo sapiens, UniProt P00742)

>  <measured.attribute>
Ki

>  <unit.spec>
pM

>  <experimental.value>
2000

$$$$
>  <smiles.data>
NC(=O)c1cccc(-n2nc(C(F)(F)F)c3c2C(=O)N(c2ccc(-c4ccccc4CN4CC[C@@H](O)C4)cc2)CC3)c1

>  <study.target>
Coagulation factor X (Homo sapiens, UniProt P00742)

>  <measured.attribute>
Ki

>  <unit.spec>
pM

>  <experimental.value>
720

$$$$
>  <smiles.data>
CS(=O)(=O)c1ccccc1-c1ccc(N2CCc3c(C(F)(F)F)nn(-c4ccccc4S(N)(=O)=O)c3C2=O)cc1

>  <study.target>
Coagulation factor X (Homo sapiens, UniProt P00742)

>  <measured.attribute>
Ki

>  <unit.spec>
pM

>  <experimental.value>
740

$$$$
>  <smiles.data>
COc1ccc(-n2nc(C(F)(F)F)c3c2C(=O)N(c2ccc(-c4ccccc4CN(C)C)cc2)CC3)cc1

>  <study.target>
Coagulation factor X (Homo sapiens, UniProt P00742)

>  <measured.attribute>
Ki

>  <unit.spec>
pM

>  <experimental.value>
350

$$$$
>  <smiles.data>
CN(C)Cc1ccccc1-c1ccc(N2CCc3c(C(F)(F)F)nn(-c4cccc(NC(N)=O)c4)c3C2=O)cc1

>  <study.target>
Coagulation factor X (Homo sapiens, UniProt P00742)

>  <measured.attribute>
Ki

>  <unit.spec>
pM

>  <experimental.value>
54000

$$$$
>  <smiles.data>
COc1ccc(-n2nc(C(F)(F)F)c3c2C(=O)N(c2ccc(-c4ccccc4S(C)(=O)=O)cc2)CC3)cc1

>  <study.target>
Coagulation factor X (Homo sapiens, UniProt P00742)

>  <measured.attribute>
Ki

>  <unit.spec>
pM

>  <experimental.value>
180

$$$$

Record COc1ccc(-n2nc(C(F)(F)F)c3c2C(=O)N(c2ccc(-c4ccccc4S(C)(=O)=O)cc2)CC3)c(N)c1 : what is its Ki with Coagulation factor X (Homo sapiens, UniProt P00742)? 200

Reported Ki for Coagulation factor X (Homo sapiens, UniProt P00742), given CN(C)Cc1ccccc1-c1ccc(N2CCc3c(C(F)(F)F)nn(-c4ccccc4S(N)(=O)=O)c3C2=O)cc1 ? 820

Missing value: Ki, Coagulation factor X (Homo sapiens, UniProt P00742), entry COc1ccc(-n2nc(C(F)(F)F)c3c2C(=O)N(c2ccc(-c4ccccc4CN4CC[C@@H](O)C4)cc2)CC3)cc1 . Fill in? 760
